normalized RNA/DNA level with ligand (log10) values, listed per item
B1: library; a variant is named by its letters at N, in order (parent)
chain: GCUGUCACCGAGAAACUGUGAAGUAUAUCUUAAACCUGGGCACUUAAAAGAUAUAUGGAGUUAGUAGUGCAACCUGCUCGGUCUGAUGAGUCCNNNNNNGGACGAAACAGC

- Variants of: B1
- Assay name: normalized RNA/DNA level with ligand (relative to sTRSVctl = 100) (log10 (% of sTRSVctl)); HEK293T; ligand: cyclic di-GMP (c-di-GMP-II aptamer); ligand concentration (+) RNA-Seq: 1 mM; higher = less ribozyme self-cleavage, higher mRNA level
- Condition description: reporter: mCherry (pCS4076), ligand present: yes
Experimental readout: normalized RNA/DNA level with ligand (log10)

variant_name=CCGGUA reported=1.61
variant_name=AACCUC reported=1.85
variant_name=CUCGGU reported=1.89
variant_name=GUACAA reported=1.68

These measurements were taken from the supplement of paper PMC6757056.
